Assay: Components of the Cytosolic LPS Sensing Pathway: Gene Identification via Genome-wide siRNA Screen
Conditions: RAW264.7 macrophages, IL-1a HTRF, actives lie on both sides, screened at 100 nM (by protocol), cells primed 5 h with Pam3CSK4 first
Procedure: Non-canonical inflammasome activation by cytosolic LPS is a critical component of the host response to Gram-negative bacterial infection, however we lack a comprehensive understanding of the cellular processes that control this pathway. […] Lipofectamine RNAiMAX Transfection Reagent ([…]; Invitrogen) was added in […] serum-free, antibiotic-free media to plate wells using a Thermo Scientific Matrix WellMate and Microplate Stacker. […] The plates were read on an EnVision plate reader (PerkinElmer). […]
Screen size: about 53,000 sequences; about 3,700 (7%) were called active.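 Rule for the calls: active = gene knockdowns whose robust z-score for IL-1 alpha signal is at least 2 or at most -2, so actives lie on both sides; inactive = the rest.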 Shown is part of a subset that was picked to be rich in actives.
Write down the outcome that applies. Available outcomes: Yes (active), No (inactive)

These solved cases illustrate the format of a correct answer.
macromoleculeSequence	label
GCGAAUUCGUGAGAAGAGCTT against Ripk4	No
CGGAGUAAACAAUACAGUCTT against Gnmt	Yes
GACCUUUCUCUUCUUGGCUTT against Olfr434	Yes
GGAUUUUGCACUAUAACAATT against Zmat3	Yes
GGACGACAGUGCAAAGCAUTT against Usb1	Yes

## Input Field: outcome | Entry: GGACAUGGAUCAAAGUUCATT against Zfp40
## Output No

## Input Field: outcome | Entry: GGUAUGGAUGAAGAACUAGTT against Pdhb
## Output No

## Input Field: outcome | Entry: GGUUAUAGGAAGGAAUUGCTT against Krt90
## Output Yes

## Input Field: outcome | Entry: GGUCAUAAGAAGCUCAAGATT against Serpinb9d
## Output No

## Input Field: outcome | Entry: GGUACCUUCAUCUUGGUGGTT against Olfr699
## Output No

## Input Field: outcome | Entry: GGCUAUCAUGAACUUGGAUTT against Gpd2
## Output No

## Input Field: outcome | Entry: GGACCUGAAGGCUGAAAUUTT against Ing4
## Output Yes

----------
Assay: Components of the Cytosolic LPS Sensing Pathway: Gene Identification via Genome-wide siRNA Screen
Settings: RAW264.7 macrophages, IL-1a HTRF, actives lie on both sides, screened at 100 nM (by protocol), cells primed 5 h with Pam3CSK4 first
About 3,700 (7%) of roughly 53,000 sequences were called active.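 Rule for the calls: active = gene knockdowns whose robust z-score for IL-1 alpha signal is at least 2 or at most -2, so actives lie on both sides; inactive = the rest.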 Many of the other results were omitted from the sample, so actives are more common in it than they were.
Write down the outcome that applies. Available outcomes: yes for active, no for inactive

macromoleculeSequence	label
GCGAGCUAAUGUCACAUUCTT against Il17ra	yes
CCUUCCUACAACAAGUGUGTT against Galnt1	yes
CCUGUGUGUGAAUCUCGUUTT against C1qb	no

## Input Field: outcome | Entry: CCUGUGCCUCGUUUUAUUUTT against Fam161a
## Output no

## Input Field: outcome | Entry: CCCAUAUGAGCUGAAAGCUTT against Il1b
## Output no

## Input Field: outcome | Entry: GCUCGUUCUUCGACAUCUUTT against Stard3
## Output no

## Input Field: outcome | Entry: GGAAAUCGAGCAAAAGACATT against Cep104
## Output no

## Input Field: outcome | Entry: GGAGAGUGUGUUUUCAGGCTT against Bop1
## Output yes

## Input Field: outcome | Entry: GGGAUCUGGAUGAGGUCAATT against Tcf7l1
## Output yes

## Input Field: outcome | Entry: GCAUCAGGCCCGUUCAGAATT against Ddx4
## Output yes

## Input Field: outcome | Entry: GCCUUCAUUAUUUUAAUGCTT against Ilf3
## Output no

## Input Field: outcome | Entry: CCGUGAAAAAAUUAAACAGTT against Slk
## Output no

## Input Field: outcome | Entry: GGUUGACAACACAUCUGCUTT against Ugt2b34
## Output no

----------
Assay: Components of the Cytosolic LPS Sensing Pathway: Gene Identification via Genome-wide siRNA Screen
Conditions: RAW264.7 macrophages, IL-1a HTRF, actives lie on both sides, screened at 100 nM (by protocol), cells primed 5 h with Pam3CSK4 first
The campaign covered roughly 53,000 sequences. About 3,700 (7%) were called active.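 How the source made its calls: active means gene knockdowns whose robust z-score for IL-1 alpha signal is at least 2 or at most -2, so actives lie on both sides; inactive means the rest.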 The full list was thinned out, with actives kept by preference.
Write down the outcome that applies. Available outcomes: active, inactive

macromoleculeSequence	label
GGGCUACCUCAGUUUAAACTT against Spic	inactive
GGAUCCUGCUCAAAAAAGUTT against Arxes1	inactive
GCAUUACUAAUCAAAGUGGTT against Abcb1b	inactive

## Input Field: outcome | Entry: GGAAGUUCAUCAUGAUAUCTT against Cxadr
## Output inactive

## Input Field: outcome | Entry: CGGAAGUAAAAAGAACUACTT against Olfr1321
## Output active

## Input Field: outcome | Entry: GGAGGAUUAUUACAGAAGGTT against Lhx9
## Output inactive

----------
Test: Components of the Cytosolic LPS Sensing Pathway: Gene Identification via Genome-wide siRNA Screen;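 note: robust z of the log signal after scaling to non-targeting control siRNA wells of the plate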
Conditions: RAW264.7 macrophages, IL-1a HTRF, actives lie on both sides, screened at 100 nM (by protocol), cells primed 5 h with Pam3CSK4 first
The whole screen tested about 53,000 sequences, of which about 3,700 (7%) were called active.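 How the source made its calls: active means gene knockdowns whose robust z-score for IL-1 alpha signal is at least 2 or at most -2, so actives lie on both sides; inactive means the rest.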 This is one part of a sample in which actives are shown more often than they occur.
Write down the outcome that applies. Available outcomes: 1.0 for active, 0.0 for inactive

These solved cases illustrate the format of a correct answer.
macromoleculeSequence	label
GGUGAAGCCAGUUUCUUUATT against Traf3ip2	0.0
CGAUCUUCCAAACCCUCUUTT against Dhh	1.0
GGGAUUUGUAUGAUGAUAATT against Sf3a3	0.0
GGAGUUUCGCAUGAGCCUGTT against Shroom1	0.0
GGCAUUGCUGACUACAAACTT against Tcn2	1.0

Now look at this one.
## Input Field: outcome | Entry: GGAGGGAAGAAACAAUCUATT against Rnf40
## Output 0.0

----------
Assay: Components of the Cytosolic LPS Sensing Pathway: Gene Identification via Genome-wide siRNA Screen;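 note: robust z of the log signal after scaling to non-targeting control siRNA wells of the plate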
Details: RAW264.7 macrophages, IL-1a HTRF, actives lie on both sides, screened at 100 nM (by protocol), cells primed 5 h with Pam3CSK4 first
Protocol: Non-canonical inflammasome activation by cytosolic LPS is a critical component of the host response to Gram-negative bacterial infection, however we lack a comprehensive understanding of the cellular processes that control this pathway. […] Lipofectamine RNAiMAX Transfection Reagent ([…]; Invitrogen) was added in […] serum-free, antibiotic-free media to plate wells using a Thermo Scientific Matrix WellMate and Microplate Stacker. […] The plates were read on an EnVision plate reader (PerkinElmer). […]
The whole screen tested about 53,000 sequences, of which about 3,700 (7%) were called active. This is one part of a sample in which actives are shown more often than they occur.
measuredEndpoint: z-score
Answer as a number with no unit attached.

Some sequences with known z-score results, for comparison:
macromoleculeSequence	z-score
GGUUCUUUCGACUUCCUGCTT against Ccbe1	-0.166
GGUGCAAUCAAAUGGAAUUTT against Nrf1	3.75

## Input # z-score lookup, item GCAACAACCACCAAAUCUATT against Prol1
## Output -1.53

## Input # z-score lookup, item GGCUUUCACCUUAAUUGAUTT against Fntb
## Output -0.296

## Input # z-score lookup, item GCUGUCCUACUGAGCUUGCTT against Gdpgp1
## Output -0.0224

## Input # z-score lookup, item GGUGUCUGAUUCUAACAUATT against Catsper4
## Output 0.589

----------
Assay: Components of the Cytosolic LPS Sensing Pathway: Gene Identification via Genome-wide siRNA Screen;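 note: robust z of the log signal after scaling to non-targeting control siRNA wells of the plate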
Conditions: RAW264.7 macrophages, IL-1a HTRF, actives lie on both sides, screened at 100 nM (by protocol), cells primed 5 h with Pam3CSK4 first
The whole screen tested about 53,000 sequences, of which about 3,700 (7%) were called active. The full list was thinned out, with actives kept by preference.
measuredEndpoint: z-score
Answer as a number with no unit attached.

macromoleculeSequence	val
GGUUAUCCUCAUUGAUCCGTT against Rpl15	0.0822
GGCUCCAAAUCAAACUCUATT against Eif4e3	2.19
GCUAGGAGCUAGGAAUCCGTT against Pdzd3	-0.682
GGUAAUUUAAUGACACAUGTT against A130079P16Rik	2.35
GGAUUACAGAAGCCCACACTT against Plekhn1	-0.719

Next up:
## Input # z-score lookup, item GGGUUUAUGUUGCCGACUCTT against Setd7
## Output 2.04

----------
Test: Components of the Cytosolic LPS Sensing Pathway: Gene Identification via Genome-wide siRNA Screen;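 note: robust z of the log signal after scaling to non-targeting control siRNA wells of the plate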
Settings: RAW264.7 macrophages, IL-1a HTRF, actives lie on both sides, screened at 100 nM (by protocol), cells primed 5 h with Pam3CSK4 first
About 3,700 (7%) of roughly 53,000 sequences were called active. This is one part of a sample in which actives are shown more often than they occur.
Here the recorded z-score is given for each entry.
Answer as a number with no unit attached.

macromoleculeSequence	z-score
GGUAUCAGAGCUGUGUUCUTT against Cpped1	-1.48
GGAGACGAGAGGAUCCUCUTT against Chga	-1.56
GCCAAUGCCCUUGUGCAAATT against Olfr344	0.301
GGAUACCACUUUAGAACCATT against Fgfr2	0.484
GGGUUUGCACUAGUUUAUUTT against Rap1a	0.632

## Input # z-score lookup, item GGCUUUUGAGAUUGCUAAATT against Mfap3l
## Output -0.491

## Input # z-score lookup, item GGAGUGACAAAAAUGUCGGTT against Snx13
## Output -0.56

## Input # z-score lookup, item GGUGCUGGCAACCUUUUGUTT against Masp1
## Output 0.16

## Input # z-score lookup, item GGAAAAACUGGUCUAUCAATT against Polr3f
## Output 1.47
